Several publications report pKi on Melatonin receptor type 1A (Homo sapiens, UniProt P48039); those values are gathered here.
Sequence (P48039 whole entry): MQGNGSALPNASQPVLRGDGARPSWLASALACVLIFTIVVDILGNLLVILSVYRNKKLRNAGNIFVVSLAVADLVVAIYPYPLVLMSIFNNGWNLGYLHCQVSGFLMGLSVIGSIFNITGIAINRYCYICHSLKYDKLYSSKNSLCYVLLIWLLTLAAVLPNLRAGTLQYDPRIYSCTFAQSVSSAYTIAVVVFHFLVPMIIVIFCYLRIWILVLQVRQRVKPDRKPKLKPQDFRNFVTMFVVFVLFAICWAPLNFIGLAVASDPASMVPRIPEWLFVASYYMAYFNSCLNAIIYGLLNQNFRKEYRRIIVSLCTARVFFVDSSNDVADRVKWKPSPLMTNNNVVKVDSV
pKi: −log10 of the molar value.

Worked cases, pKi given:
CCC(=O)NCc1ccc2c(OC)cccc2n1
< 5.00
C#CCC(=O)Nc1ccc(Oc2cccc(OC)c2)cc1
< 6.30
COC(=O)NCCc1cccc2ncc(OC)cc12
< 5.00
COc1ccc2nc(-c3ccccc3)c(CC(CO)NC(C)=O)n2c1 (stereo not given)
< 5.00

[Q] Report measured pKi; entry is CCCC(=O)Nc1ccc(C(=O)c2cccc(OC)c2)cc1
[A] < 6.30
